Overview of recorded pIC50 for various compounds
target: human α-thrombin (Homo sapiens (Human), UniProt P00734)
Note: pIC50 values are expressed as the negative base-10 logarithm of concentration in M.

Record excerpt, results attached:
>  <compound>
Nc1ccc2c(n1)CCC2NC(=O)[C@@H]1CCCN1C(=O)[C@H]1C[C@H](Cc2ccc(-c3ccccc3)cc2)CN1 (some centres unmarked)

>  <pIC50>
4.78

$$$$
>  <compound>
Nc1ccc2c(n1)CCC2NC(=O)[C@@H]1CCN1C(=O)[C@H]1C[C@H](Cc2ccc(-c3ccccc3)cc2)CN1 (some centres unmarked)

>  <pIC50>
4.92

$$$$

Please look up its pIC50: C[C@H](NC(=O)[C@H]1C[C@H](Cc2ccc(F)cc2)CN1)C(=O)N[C@@H]1CCc2nc(N)ccc21
4.56
